Biological target: T1, recombinant human soluble gpNMB (recombinant human gpNMB-FLAG-His) (human, UniProt Q14956 23-498)
T1 sequence: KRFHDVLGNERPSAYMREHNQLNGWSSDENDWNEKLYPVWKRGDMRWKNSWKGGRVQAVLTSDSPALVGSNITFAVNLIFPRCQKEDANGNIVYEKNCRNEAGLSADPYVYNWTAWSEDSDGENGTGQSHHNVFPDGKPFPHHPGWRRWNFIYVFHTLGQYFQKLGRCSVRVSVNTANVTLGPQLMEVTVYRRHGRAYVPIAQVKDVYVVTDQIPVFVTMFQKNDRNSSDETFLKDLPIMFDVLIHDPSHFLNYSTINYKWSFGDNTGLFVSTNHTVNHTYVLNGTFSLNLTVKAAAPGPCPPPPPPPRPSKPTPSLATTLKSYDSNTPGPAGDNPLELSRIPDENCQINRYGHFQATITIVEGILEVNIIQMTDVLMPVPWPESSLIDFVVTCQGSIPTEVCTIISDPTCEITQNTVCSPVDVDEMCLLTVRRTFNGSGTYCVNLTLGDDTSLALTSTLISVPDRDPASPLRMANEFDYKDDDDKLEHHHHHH
Assay: antigen ELISA
Listing of entries alongside the reported log10 of EC50.
quantityName: log10 of EC50 (log10 of the value in nM)

INSERT INTO assay_data (binder, endpointvalue) VALUES
  ('hGPN06-1_H1L1 VH P53A (antibody, V domains shown) VH: QVQLVQSGAEVKKPGASVKVSCKASGYTFTDNWMGWVKQRPGQGLEWIGAIDASDSFTNYNQNFKGRVTMTVDTSISTAYMELSRLRSDDSAVYFCTRSGYYGSPKLGGDYWGQGTLVTVSS VL: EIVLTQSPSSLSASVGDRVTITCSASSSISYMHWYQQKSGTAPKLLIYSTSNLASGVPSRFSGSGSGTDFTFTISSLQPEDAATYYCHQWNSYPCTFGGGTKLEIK', -0.10),
  ('hGPN06-1_H1L1 VH M34A (antibody, V domains shown) VH: QVQLVQSGAEVKKPGASVKVSCKASGYTFTDNWAGWVKQRPGQGLEWIGAIDPSDSFTNYNQNFKGRVTMTVDTSISTAYMELSRLRSDDSAVYFCTRSGYYGSPKLGGDYWGQGTLVTVSS VL: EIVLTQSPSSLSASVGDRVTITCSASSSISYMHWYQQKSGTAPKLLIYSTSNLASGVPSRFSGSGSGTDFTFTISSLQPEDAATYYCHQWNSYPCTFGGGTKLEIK', 0.55),
  ('hGPN06-1_H1L1 VH T28A (antibody, V domains shown) VH: QVQLVQSGAEVKKPGASVKVSCKASGYAFTDNWMGWVKQRPGQGLEWIGAIDPSDSFTNYNQNFKGRVTMTVDTSISTAYMELSRLRSDDSAVYFCTRSGYYGSPKLGGDYWGQGTLVTVSS VL: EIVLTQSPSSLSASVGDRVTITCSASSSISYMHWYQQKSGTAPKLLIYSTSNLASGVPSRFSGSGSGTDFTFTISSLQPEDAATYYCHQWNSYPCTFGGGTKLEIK', 0.30),
  ('hGPN06-1_H1L1 VH Y27A (antibody, V domains shown) VH: QVQLVQSGAEVKKPGASVKVSCKASGATFTDNWMGWVKQRPGQGLEWIGAIDPSDSFTNYNQNFKGRVTMTVDTSISTAYMELSRLRSDDSAVYFCTRSGYYGSPKLGGDYWGQGTLVTVSS VL: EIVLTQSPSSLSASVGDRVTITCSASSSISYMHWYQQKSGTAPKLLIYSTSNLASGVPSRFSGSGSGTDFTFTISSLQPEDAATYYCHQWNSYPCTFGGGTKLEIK', 1.84),
  ('hGPN06-1_H1L1 VH G66A (antibody, V domains shown) VH: QVQLVQSGAEVKKPGASVKVSCKASGYTFTDNWMGWVKQRPGQGLEWIGAIDPSDSFTNYNQNFKARVTMTVDTSISTAYMELSRLRSDDSAVYFCTRSGYYGSPKLGGDYWGQGTLVTVSS VL: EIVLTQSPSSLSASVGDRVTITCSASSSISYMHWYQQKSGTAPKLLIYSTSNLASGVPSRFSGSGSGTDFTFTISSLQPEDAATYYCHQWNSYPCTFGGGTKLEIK', -0.43);

The reported numbers originate from patent EP4772193A1.
